B1: library; a variant is named by its letters at X, in order (parent)
chain: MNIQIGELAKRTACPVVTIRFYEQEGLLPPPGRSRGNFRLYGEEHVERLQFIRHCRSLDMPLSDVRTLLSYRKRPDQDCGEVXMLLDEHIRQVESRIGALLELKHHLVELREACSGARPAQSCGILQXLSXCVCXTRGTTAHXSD

variants of: B1; experiment: sfGFP reporter fluorescence (15 h) (µM FITC); higher = stronger transcriptional activation; details: library round: Round 2; ligand: 30 µM Zn

- Variant Id: "NGDAL L110I"
  sfGFP reporter fluorescence: 0.953
- Variant Id: "NMDDP R96G K104V"
  sfGFP reporter fluorescence: 0.58
- Variant Id: "TGDDP D64E V108N"
  sfGFP reporter fluorescence: 0.0616
- Variant Id: "TGAYC"
  sfGFP reporter fluorescence: 0.699
- Variant Id: "NGAAP L107C"
  sfGFP reporter fluorescence: 3.05
- Variant Id: "NGSRP L126I"
  sfGFP reporter fluorescence: 0.333
- Variant Id: "NGSAA K104R"
  sfGFP reporter fluorescence: 1.05
- Variant Id: "NGDPP M84A R111A"
  sfGFP reporter fluorescence: 0.919
- Variant Id: "IGDDR K104V H106A"
  sfGFP reporter fluorescence: 0.0496
- Variant Id: "TGCAT"
  sfGFP reporter fluorescence: 0.09
- Variant Id: "TGNRA"
  sfGFP reporter fluorescence: 0.663
- Variant Id: "NIDDP P61N C134E"
  sfGFP reporter fluorescence: 3.19
- Variant Id: "NGDAP M60L D64K"
  sfGFP reporter fluorescence: 3.35
- Variant Id: "NADDP P61N D64K K104V"
  sfGFP reporter fluorescence: 3.1
- Variant Id: "TGDRP L107C"
  sfGFP reporter fluorescence: 2.94
- Variant Id: "NGDDP"
  sfGFP reporter fluorescence: 0.684
- Variant Id: "TGDDP I97A K104G"
  sfGFP reporter fluorescence: 0.412
- Variant Id: "NGDDW L110I S115G"
  sfGFP reporter fluorescence: 0.325
- Variant Id: "TGDPR E109L"
  sfGFP reporter fluorescence: 0.346
- Variant Id: "NHCDP I125V"
  sfGFP reporter fluorescence: 0.0631
- Variant Id: "NGADW L126I"
  sfGFP reporter fluorescence: 0.317
- Variant Id: "SADAP"
  sfGFP reporter fluorescence: 2.33
